Biological target: GluRδ2^Lc (Rattus norvegicus, UniProt Q63226, A654T)
Sequence (Q63226 24-1007 A654T): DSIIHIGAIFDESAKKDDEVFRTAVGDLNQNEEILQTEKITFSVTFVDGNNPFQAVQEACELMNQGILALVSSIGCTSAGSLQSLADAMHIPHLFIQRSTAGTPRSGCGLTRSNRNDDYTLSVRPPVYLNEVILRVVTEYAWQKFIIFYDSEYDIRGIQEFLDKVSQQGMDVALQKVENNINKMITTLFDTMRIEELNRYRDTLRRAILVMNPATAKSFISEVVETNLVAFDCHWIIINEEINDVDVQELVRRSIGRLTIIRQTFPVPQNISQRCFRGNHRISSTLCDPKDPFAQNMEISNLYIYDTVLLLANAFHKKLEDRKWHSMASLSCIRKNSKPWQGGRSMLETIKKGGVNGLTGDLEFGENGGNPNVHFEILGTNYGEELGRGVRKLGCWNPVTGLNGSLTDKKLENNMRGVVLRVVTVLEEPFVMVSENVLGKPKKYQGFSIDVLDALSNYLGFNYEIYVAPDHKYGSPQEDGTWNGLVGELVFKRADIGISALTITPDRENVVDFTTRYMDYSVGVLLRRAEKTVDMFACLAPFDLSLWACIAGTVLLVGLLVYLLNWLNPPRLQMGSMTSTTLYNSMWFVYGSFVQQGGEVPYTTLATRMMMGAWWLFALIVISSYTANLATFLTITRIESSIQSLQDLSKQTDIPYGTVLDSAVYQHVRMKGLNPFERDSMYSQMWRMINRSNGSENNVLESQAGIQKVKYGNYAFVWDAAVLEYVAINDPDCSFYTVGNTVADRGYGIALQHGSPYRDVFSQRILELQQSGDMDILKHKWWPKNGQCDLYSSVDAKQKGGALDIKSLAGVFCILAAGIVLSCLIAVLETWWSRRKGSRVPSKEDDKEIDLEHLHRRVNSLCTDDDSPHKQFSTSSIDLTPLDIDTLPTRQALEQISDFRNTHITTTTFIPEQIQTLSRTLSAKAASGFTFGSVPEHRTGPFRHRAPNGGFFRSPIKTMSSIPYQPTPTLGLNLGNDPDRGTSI
Assay type: cell-based
Conditions: 0.5 mM Ba^2+ exchanged with 0.5 mM of the divalent cation
# spontaneously active current relative to baseline with Ba^2+ annotations
PROPERTY MEASURED: spontaneously active current relative to baseline with Ba^2+

{"MOLECULE": "[Sr+2] [Sr^2+]", "TARGET": "GluRδ2^Lc (Rattus norvegicus, UniProt Q63226, A654T)", "ASSAY RESULT": 1.33}
{"MOLECULE": "[Mn+2] [Mn^2+]", "TARGET": "GluRδ2^Lc (Rattus norvegicus, UniProt Q63226, A654T)", "ASSAY RESULT": 2.66}
{"MOLECULE": "[Ca+2] [Ca^2+, calcium]", "TARGET": "GluRδ2^Lc (Rattus norvegicus, UniProt Q63226, A654T)", "ASSAY RESULT": 3.91}
{"MOLECULE": "[Mg+2] [Mg^2+]", "TARGET": "GluRδ2^Lc (Rattus norvegicus, UniProt Q63226, A654T)", "ASSAY RESULT": 1.06}
{"MOLECULE": "[Zn+2] [Zn^2+]", "TARGET": "GluRδ2^Lc (Rattus norvegicus, UniProt Q63226, A654T)", "ASSAY RESULT": 1.33}
